The measured values listed here are drawn from patent US4296108A.

- Tested on: houseflies (Musca domestica)
- test details: whole plant or invertebrate
- Format: in vivo
- measurement setup: Musca domestica; 0.02 mg active ingredient per dish; 4 hours; read-out: Kill rate

>  <compound>
COP(=O)(OCC1CC1(Cl)Cl)Oc1ccc(SC)cc1 (centres unmarked)

>  <measurement units>
%

>  <mortality at 0.02 mg>
100

$$$$
>  <compound>
COP(=O)(OCC1CC1(Cl)Cl)Oc1ccc([N+](=O)[O-])cc1 (centres unmarked)

>  <measurement units>
%

>  <mortality at 0.02 mg>
100

$$$$
>  <compound>
COP(=O)(OCC1CC1(Cl)Cl)Oc1ccc(C#N)cc1 (centres unmarked)

>  <measurement units>
%

>  <mortality at 0.02 mg>
100

$$$$
>  <compound>
COP(=O)(OCC1CC1(Cl)Cl)Oc1ccc(SC)c(C)c1 (centres unmarked)

>  <measurement units>
%

>  <mortality at 0.02 mg>
80

$$$$
>  <compound>
COP(=O)(OCC1CC1(Cl)Cl)Oc1cc(Cl)c(Cl)cc1Cl (centres unmarked)

>  <measurement units>
%

>  <mortality at 0.02 mg>
100

$$$$
